Assign Activity to each entry below.
tested on: A-431; test: Cell cycle arrest in human A431 cells assessed as accumulation at S phase at 50 uM after 24 hrs by propidium iodide staining based flow cytometric analysis (reference value: 17.33%); type: functional

Known Activity results, listed for orientation:
LINE_NOTATION	Activity
O=C1C=CC(=O)c2c1ccc1c2c(=O)oc2ccccc21	11.39%
O=C1C=CC(=O)c2c1ccc1c2c(=O)[nH]c2ccc(Cl)cc21	7.07%
O=C1C=CC(=O)c2c1ccc1c2c(=O)oc2cc(Cl)ccc21	16.24%

Field: next compound
State its Activity: O=C1C=CC(=O)c2c1ccc1c2c(=O)[nH]c2ccccc21
6.98%
